Assignment: determine reported pIC50 for the given molecules.
# Tested on: IL-1β release upon NLRP3 activation in peripheral blood mononuclear cells (PBMC)
# assay.remarks: PBMC IC50 Determination Assay
# Assay type: cell-based
# assay.context: Homo sapiens; inhibition of IL-1β release; LPS-primed PBMC stimulated with ATP or nigericin
pIC50: −log10 of the molar value. Structures can show the parent of a compound that is named as a salt.

Cc1cc(C(F)(F)F)cc(O)c1-c1ccc(Cn2ccc(=N)nc2)nn1 [Compound 120] | ≤ 5.00

Give measured pIC50 for every item shown.
1. Cc1cc(C2CC2)cc(O)c1-c1ccc(CNC2CCOCC2)nn1 [Compound 48]
2. Cc1cc(C(F)(F)F)cc(O)c1-c1ccc(CNCC(C)(C)O)nn1 [Compound 117]
3. Cc1cc(C(F)(F)F)cc(O)c1-c1ccc(CNC2CC(=O)N(C)C2=O)nn1 (stereo not drawn) [Compound 114]
4. Cc1cc(C(F)(F)F)cc(O)c1-c1ccc(CNCC2CC2)nn1 [Compound 97]
5. Cc1cc(C(F)(F)F)cc(O)c1-c1ccc(CNCC2CCN(C)C2)nn1 (stereo not drawn) [Compound 77, dihydrochloride]
6. Cc1cc(C(F)(F)F)cc(O)c1-c1ccc(CNC2CCCCC2)nn1 [Compound 100]
7. Cc1c(C(F)(F)F)ccc(-c2ccc(CNC3CCOCC3)nn2)c1O [Compound 9]

1: 5.52 to 6.00; 2: 6.00 to 6.30; 3: > 6.30; 4: 6.00 to 6.30; 5: 5.52 to 6.00; 6: 5.52 to 6.00; 7: ≤ 5.00

Tell me the measured pIC50 of Cc1cc(C(F)(F)F)cc(O)c1-c1ccc(CNC2COC2)nn1 [Compound 21] , please.
6.00 to 6.30
